# CONC. per record follows
Tested on: insulin receptor (IR)
Assay: Phosphotyrosine enzyme linked immunosorbent assay: pTyr on insulin receptor in NIH3T3 cells over-expressing human IR (H25 cells)
Conditions: Table I; concentration of the compound which produces the percentage increase in phosphotyrosine over the vanadate control; 90 min incubation, no insulin
# unit: µM | format: bare number

# example entries with known answers
>  <compound_string>
CCn1nc(C)cc1-c1nnc(Sc2ncc([N+](=O)[O-])s2)n1CCCOC

>  <CONC. [µM]>
3.9

$$$$
>  <compound_string>
O=[N+]([O-])c1cnc(Sc2nnc(O)n2C2CCCCC2)s1

>  <CONC. [µM]>
100

$$$$

Now, please, on to the next molecule.
Memo: O=[N+]([O-])c1cnc(Sc2n[nH]c(-c3ccccc3)n2)s1 , reported CONC.: 53
